Tested on: DeltatarO mutant
Test: S. aureus survival, RN4220 and DeltatarO strains – OD600, teichoic acid synthesis inhibitors, primary screen (AID 463173)
Conditions: S. aureus RN4220 wild type/DeltatarO growth, OD600, 18 h, hits give low values, screened at 18.75 µg/mL (by protocol)
In all, about 52,000 compounds went through this assay and about 4,300 (8.3%) were called active. This is one part of a sample in which actives are shown more often than they occur.
MEASURED_ATTRIBUTE: survival (%)
Give just the numeric value; % need not be written.

Field: example entries. Status: answers known.
COc1cc(NC(=O)c2c(C)nn(-c3ccc(F)cc3)c2-n2cccc2)cc(OC)c1 : 78
O=C(Nc1ccc(F)c(Cl)c1)C1CCCN(c2ncnc3onc(-c4ccc(F)cc4)c23)C1 (stereo not drawn) : 78

Now for a further compound.
Ask | Requested read-out: survival. Entry: `COc1ccccc1NC(=O)Cn1c(=O)n(-c2ccc(C)cc2)c(=O)c2ccc(C(=O)NCc3ccco3)cc21`
Reply | 79

----------
System: DeltatarO mutant
Experiment: S. aureus survival, RN4220 and DeltatarO strains – OD600, teichoic acid synthesis inhibitors, primary screen (AID 463173)
Details: S. aureus RN4220 wild type/DeltatarO growth, OD600, 18 h, hits give low values, screened at 18.75 µg/mL (by protocol)
Hit rate of the full screen: of about 52,000 compounds, about 4,300 (8.3%) were called active. This excerpt belongs to a sample that is enriched for actives.
MEASURED_ATTRIBUTE: survival (%)
Supply the numeric figure in %, leaving out any unit text.

Use the examples below as a reference point.
CCOc1ccccc1NC(=O)CSc1nc(-c2cccs2)cc(C(F)(F)F)n1 : 69
O=C(Nc1cc(F)ccc1F)C1COc2ccccc2C1 (configuration not stated) : 69
COC(=O)c1sc(-c2ccccc2)cc1NC(=O)c1cccc(Cl)c1 : 34
COc1ccc(NC(=O)CSc2nc(-c3cccs3)cc(C(F)(F)F)n2)c(OC)c1 : 57
Cc1nnc(SCc2ccccc2)c2cc3sccc3n12 : 53
CCOc1ccc(NC(=O)CC2Nc3cccc4cccc(c34)NC2=O)cc1 (configuration not stated) : 37

Ask | Which survival is reported for this molecule? `Cn1c(COc2ccccc2Br)nc2ccccc21`
Reply | 92

Ask | Item under review: `O=C(CSc1nc(-c2cccs2)cc(C(F)(F)F)n1)Nc1ccccc1Cl` . Reported survival?
Reply | 121

Ask | Need survival, item COc1cc2nc(NCC(C)c3ccccc3)n3nc(-c4ccccc4)nc3c2cc1OC (configuration not stated)
Reply | 61

Ask | Could you tell me which survival is on file for `O=C1NC2(CCCCC2)C(=O)N1c1ccc(Cl)cc1` ?
Reply | 109

Ask | Which survival reading was recorded for the molecule `CCOC(=O)c1cccc(-n2nnc3c(sc4nc(C)c(Br)c(C)c43)c2=O)c1` ?
Reply | 92

Ask | What measured survival goes with `O=C(NC1=NCCS1)c1ccccc1` ?
Reply | 101

Ask | Name the recorded survival for CCOC(=O)c1ccc(NC(=O)CC2Nc3cccc4cccc(c34)NC2=O)cc1 (configuration not stated) .
Reply | 28

Ask | May I ask what survival has been recorded for `O=C(CCn1nnc2ccccc21)N1CCC(O)(c2cccc(F)c2)CC1` ?
Reply | 81

Ask | Given the molecule COc1ccccc1C(=O)CC1(O)C(=O)N(CC(N)=O)c2ccccc21 (configuration not stated) , what is its reported survival?
Reply | 61

Ask | Reported survival for `Cc1ccc(NC(=O)CSc2nc(-c3cccs3)cc(C(F)(F)F)n2)cc1C` : what is it?
Reply | 155

Ask | Field request: survival | item: Cc1ccc(NC(=O)CC2Nc3cccc4cccc(c34)NC2=O)cc1 (configuration not stated)
Reply | 61

Ask | Consider the molecule shown here: `Cc1cc(C)nc(NS(=O)(=O)c2ccc(NC(=O)COc3ccc(Cl)cc3C)cc2)n1` What is its recorded survival?
Reply | 63

Ask | Fill blank: measured survival of the molecule O=C(NCc1ccc(F)cc1)c1ccc(NC(=O)N2CC3CCCN3c3ccccc32)cc1 (configuration not stated) is ____.
Reply | 113

Ask | Entry `CCOc1ccc(-c2cc3c(=O)n(Cc4nc(-c5cccc(OC)c5OC)oc4C)ccn3n2)cc1Cl` has what survival?
Reply | 187

Ask | Query (molecule): `CCOC(=O)c1oc2ccccc2c1CN(C)CCc1ccccc1` ; field requested: survival
Reply | 70

Ask | For `CC(C)Oc1ccc(CNS(=O)(=O)c2cnc(N)nc2)cc1` , what is its reported survival?
Reply | 115

Ask | Endpoint output: survival of COc1ccc(NC(=O)CC2Nc3cccc4cccc(c34)NC2=O)cc1 (configuration not stated) . Value?
Reply | 41

Ask | I am curious: what survival value has been reported for `CC(C)CCNC(=O)c1cc2sccc2n1Cc1ccc(F)cc1` ?
Reply | 87

Ask | Name the reported survival value associated with the molecule Cc1cccc(NC(=O)CC2Nc3cccc4cccc(c34)NC2=O)c1 (configuration not stated)
Reply | 64

Ask | Returns the measured survival for the input molecule. Input: CC(=O)c1ccc(NC(=O)CC2Nc3cccc4cccc(c34)NC2=O)cc1 (configuration not stated)
Reply | 72

Ask | Endpoint output: survival of `COc1cccc(OCc2nc3ccccc3n2Cc2ccccc2)c1` . Value?
Reply | 62

Ask | What value of measured survival is listed for `COc1cc2nc(NCCC(C)C)n3nc(-c4ccccc4)nc3c2cc1OC` ?
Reply | 49
